Test system: LXRa homodimer (NR concentration 270 nM)
TEST NAME: PBM binding z-score (relative to random genomic background probes); higher = stronger binding; sequences stand for … in GC…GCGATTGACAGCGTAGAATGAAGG
ASSAY READOUT: PBM binding z-score
Give the value as a plain number.

Record excerpt, results attached:
- MONOMER SEQUENCE: "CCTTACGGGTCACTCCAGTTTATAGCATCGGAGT"
  REPORTED: 0.838
- MONOMER SEQUENCE: "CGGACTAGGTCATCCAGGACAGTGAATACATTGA"
  REPORTED: 0.39
- MONOMER SEQUENCE: "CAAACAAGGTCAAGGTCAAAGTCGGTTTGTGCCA"
  REPORTED: 4.84
- MONOMER SEQUENCE: "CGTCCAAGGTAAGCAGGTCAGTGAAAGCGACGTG"
  REPORTED: -0.204

Query: Recorded PBM binding z-score of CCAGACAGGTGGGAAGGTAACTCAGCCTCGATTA , please.
Result: 0.289

Query: Recorded PBM binding z-score of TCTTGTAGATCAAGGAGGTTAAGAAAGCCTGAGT , please.
Result: -0.308

Query: Recorded PBM binding z-score of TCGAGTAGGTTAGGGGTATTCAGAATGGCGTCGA , please.
Result: -0.105

Query: Recorded PBM binding z-score of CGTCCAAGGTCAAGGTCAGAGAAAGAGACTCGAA , please.
Result: 0.844

Query: Recorded PBM binding z-score of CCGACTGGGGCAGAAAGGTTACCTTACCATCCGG , please.
Result: -0.251
